Target: JAK2/JAK2 homdimeric complex (Homo sapiens (Human))
Sequence (O60674 whole entry): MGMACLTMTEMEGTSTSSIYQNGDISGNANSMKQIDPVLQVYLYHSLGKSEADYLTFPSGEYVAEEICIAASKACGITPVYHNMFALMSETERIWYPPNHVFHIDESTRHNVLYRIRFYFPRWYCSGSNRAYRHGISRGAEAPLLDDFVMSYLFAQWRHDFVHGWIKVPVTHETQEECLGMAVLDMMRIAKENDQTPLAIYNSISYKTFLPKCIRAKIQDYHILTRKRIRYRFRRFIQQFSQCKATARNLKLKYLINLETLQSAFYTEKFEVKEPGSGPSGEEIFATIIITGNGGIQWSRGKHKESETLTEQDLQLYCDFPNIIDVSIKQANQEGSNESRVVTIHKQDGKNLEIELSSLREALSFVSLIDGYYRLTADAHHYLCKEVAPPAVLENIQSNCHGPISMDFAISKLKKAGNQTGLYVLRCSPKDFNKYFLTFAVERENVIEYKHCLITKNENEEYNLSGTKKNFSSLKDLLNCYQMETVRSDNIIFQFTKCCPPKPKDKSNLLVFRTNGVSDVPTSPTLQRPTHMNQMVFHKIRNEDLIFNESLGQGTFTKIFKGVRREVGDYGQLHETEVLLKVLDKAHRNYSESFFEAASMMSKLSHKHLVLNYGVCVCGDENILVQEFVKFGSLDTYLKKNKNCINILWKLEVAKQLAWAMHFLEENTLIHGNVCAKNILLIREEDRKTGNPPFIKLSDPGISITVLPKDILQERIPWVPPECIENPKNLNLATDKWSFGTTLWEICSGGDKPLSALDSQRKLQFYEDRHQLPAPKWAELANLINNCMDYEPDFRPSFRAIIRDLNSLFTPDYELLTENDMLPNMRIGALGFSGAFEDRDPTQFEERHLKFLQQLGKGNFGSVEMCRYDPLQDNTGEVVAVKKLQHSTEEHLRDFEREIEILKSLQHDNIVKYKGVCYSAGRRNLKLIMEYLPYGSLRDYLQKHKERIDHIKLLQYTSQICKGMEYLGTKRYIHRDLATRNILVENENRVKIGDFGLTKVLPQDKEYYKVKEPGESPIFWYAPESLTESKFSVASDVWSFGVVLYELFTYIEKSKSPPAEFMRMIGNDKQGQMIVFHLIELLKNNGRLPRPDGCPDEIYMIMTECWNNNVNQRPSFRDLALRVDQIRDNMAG
Sequence (P32927 17-897 partner): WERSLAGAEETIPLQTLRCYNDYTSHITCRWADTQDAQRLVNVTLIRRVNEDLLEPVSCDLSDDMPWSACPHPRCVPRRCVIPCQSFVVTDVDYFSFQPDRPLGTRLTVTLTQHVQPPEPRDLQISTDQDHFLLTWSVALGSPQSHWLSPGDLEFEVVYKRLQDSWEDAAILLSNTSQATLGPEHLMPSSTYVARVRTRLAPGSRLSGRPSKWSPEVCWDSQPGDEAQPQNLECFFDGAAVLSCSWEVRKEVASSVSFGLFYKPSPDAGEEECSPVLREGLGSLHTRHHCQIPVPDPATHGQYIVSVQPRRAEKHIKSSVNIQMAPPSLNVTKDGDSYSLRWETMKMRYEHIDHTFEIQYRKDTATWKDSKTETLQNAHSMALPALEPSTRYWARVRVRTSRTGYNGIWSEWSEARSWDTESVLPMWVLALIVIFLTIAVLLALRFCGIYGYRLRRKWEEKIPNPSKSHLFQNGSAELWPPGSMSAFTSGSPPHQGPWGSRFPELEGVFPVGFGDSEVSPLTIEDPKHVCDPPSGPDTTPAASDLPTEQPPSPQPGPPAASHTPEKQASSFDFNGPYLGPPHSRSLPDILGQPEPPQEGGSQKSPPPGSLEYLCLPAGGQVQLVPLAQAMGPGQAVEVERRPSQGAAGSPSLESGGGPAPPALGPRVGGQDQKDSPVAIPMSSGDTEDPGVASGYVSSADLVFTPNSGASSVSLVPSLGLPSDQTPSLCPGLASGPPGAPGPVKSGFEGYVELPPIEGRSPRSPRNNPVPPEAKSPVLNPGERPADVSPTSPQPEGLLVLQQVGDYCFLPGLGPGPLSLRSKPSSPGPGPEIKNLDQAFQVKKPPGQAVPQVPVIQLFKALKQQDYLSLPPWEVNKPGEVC
Experiment: GM-CSF Induced pSTAT5 in Human PBMC
Conditions: GM-CSF 5 ng/mL for 20 minutes, pSTAT5 by MSD, read-out: PBMC_GMCSF_pSTAT5 IC50
quantity: IC50

Consider the worked cases shown below.
CNc1cc(Nc2cccc3ocnc23)nc2c(C(=O)NC3CC[C@@H]3OC)cnn12 (stereo partly shown) | > 50 µM
[2H]C([2H])([2H])Oc1ncccc1Nc1cc(NC)n2ncc(C(=O)N[C@H]3CC[C@@H]3O)c2n1 [I-373] | > 50 µM
CNc1cc(Nc2cc(F)cn([C@H]3CCCOC3)c2=O)nc2c(C(=O)N[C@H]3C[C@H]3F)cnn12 | > 50 µM
CNc1cc(Nc2cc(Cl)cn(C3CCCOC3)c2=O)nc2c(C(=O)N[C@H]3C[C@H]3F)cnn12 (stereo partly shown) | > 50 µM
CNc1cc(Nc2cccn([C@H]3CC[C@@H](OC)CC3)c2=O)nc2c(C(=O)N[C@H]3C[C@H]3F)cnn12 | > 2.5 µM
CNc1cc(Nc2cccn(-c3ncc(C)s3)c2=O)nc2c(C(=O)NC3CCC3)cnn12 | > 2.5 µM
CNc1cc(Nc2cccn(-c3cnc(C(=O)N(C)C)cn3)c2=O)nc2c(C(=O)NC3CCC3)cnn12 | > 2.5 µM
CNc1cc(Nc2cccn([C@H]3CCCC[C@H]3OC)c2=O)nc2c(C(=O)N[C@H]3CC[C@@H]3OC)cnn12 | > 50 µM

Provide the documented IC50 with JAK2/JAK2 homdimeric complex (Homo sapiens (Human)) as the system for CNc1cc(-c2cn(C3CC3)c3ncccc23)nc2c(C(=O)NC3CC3)cnn12
> 50 µM

Provide the documented IC50 with JAK2/JAK2 homdimeric complex (Homo sapiens (Human)) as the system for CNc1cc(Nc2cccnc2OC)nc2c(C(=O)NCC(C)(C)CO)cnn12
> 2.5 µM

---

// reported pKd per item
Target: human TYK2 (JH2domain-pseudokinase) (Homo sapiens (Human))
Sequence (P29597 556-888): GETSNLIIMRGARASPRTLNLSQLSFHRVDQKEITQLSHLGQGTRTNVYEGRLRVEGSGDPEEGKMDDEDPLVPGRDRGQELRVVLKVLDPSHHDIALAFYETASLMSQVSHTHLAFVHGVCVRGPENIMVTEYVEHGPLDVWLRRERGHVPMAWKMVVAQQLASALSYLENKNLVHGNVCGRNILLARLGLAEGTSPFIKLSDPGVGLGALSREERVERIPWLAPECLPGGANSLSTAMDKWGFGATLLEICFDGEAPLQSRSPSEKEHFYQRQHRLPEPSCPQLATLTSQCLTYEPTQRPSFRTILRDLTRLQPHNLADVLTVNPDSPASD
Assay: TYK2 JH2 Domain Binding Assay (KINOMEscan)
pKd: −log10 of the molar value.

Consider the worked cases shown below.
CNc1cc(Nc2cccn(C3CCOCC3)c2=O)nc2c(C(=O)N[C@@H]3CCC[C@@](C)(OC)C3)cnn12 (stereo in doubt) [I-1274] | > 9.70
CNc1cc(Nc2cccn([C@H]3CCCN(CCC#N)C3)c2=O)nc2c(C(=O)N[C@@H]3C[C@@H]3F)cnn12 | 9.00 to 9.70
[2H]C([2H])([2H])Oc1ncccc1Nc1cc(NC)n2ncc(C(=O)NC3CCC3)c2n1 | > 9.70
CNc1cc(Nc2cccnc2OC)nc2c(C(=O)N[C@H]3CC[C@H]3O)cnn12 | > 9.70

Recorded pKd of CNc1cc(Nc2cccc(N3CC4(CCO4)C3)n2)nc2c(C(=O)N[C@H]3CC[C@H]3O)cnn12 [I-872] , please.
> 9.70

Recorded pKd of CNc1cc(-c2cn([C@@H]3CCCOC3)c3ncccc23)nc2c(C(N)=O)cnn12 , please.
9.00 to 9.70

Recorded pKd of CNc1cc(Nc2cccc([C@H]3CCCCO3)n2)nc2c(C(=O)N[C@H]3CC[C@H]3O)cnn12 , please.
> 9.70

Recorded pKd of CNc1cc(Nc2cccn([C@@H]3CCN(CCF)C3)c2=O)nc2c(C(=O)N[C@H]3CC[C@@H]3OC)cnn12 , please.
8.00 to 9.00

Recorded pKd of CNc1cc(Nc2cccn(-c3cc(C)n(C)n3)c2=O)nc2c(C(=O)NC3CC3)cnn12 , please.
> 9.70

Recorded pKd of CNc1cc(Nc2cccn([C@@H]3CCCOC3)c2=O)nc2c(C(=O)NC3CC3)cnn12 , please.
> 9.70

This collection of values is drawn from patent US10508120B2.
